- targetOrSystem: UniProt P11229
- Sequence (P11229 whole entry): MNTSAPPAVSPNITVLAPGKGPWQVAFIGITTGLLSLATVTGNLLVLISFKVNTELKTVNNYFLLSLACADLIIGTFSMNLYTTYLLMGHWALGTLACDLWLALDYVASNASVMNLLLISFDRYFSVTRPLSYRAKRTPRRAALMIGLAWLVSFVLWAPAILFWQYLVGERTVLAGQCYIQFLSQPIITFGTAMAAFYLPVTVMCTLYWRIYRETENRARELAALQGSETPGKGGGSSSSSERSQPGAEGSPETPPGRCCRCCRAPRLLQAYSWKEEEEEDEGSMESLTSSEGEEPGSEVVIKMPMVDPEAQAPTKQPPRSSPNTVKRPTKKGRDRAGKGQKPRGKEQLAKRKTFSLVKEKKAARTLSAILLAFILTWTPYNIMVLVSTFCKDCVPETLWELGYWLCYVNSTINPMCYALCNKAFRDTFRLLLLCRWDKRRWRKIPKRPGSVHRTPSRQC
- assayProtocol: Allosteric potency EC50 for muscarinic M1 receptor, CHO pCRE-Luc reporter cell assay
- studyConditions: in presence of EC20 of acetylcholine; CHO cells, luciferase reporter, 4 h
pEC50: −log10 of the molar value.
pEC50: recorded values

| smilesStr | pEC50 |
| --- | --- |
| COc1cccc(Cc2cc3c(nc2C)CN([C@H]2CCCC[C@@H]2O)C3=O)c1 | 5.64 |
| COc1ccc(Cc2cc3c(nc2C)CCN([C@H]2CCCC[C@@H]2O)C3=O)cc1 | 6.19 |
| COc1ccc(Cc2cc3c(nc2C)CN([C@H]2CCCC[C@@H]2O)C3=O)cc1 | 6.02 |
| Cc1nc2c(cc1Cc1ccc(F)cc1)C(=O)N([C@H]1CCCC[C@@H]1O)C2 | 5.82 |
| COc1cccc(Cc2cc3c(nc2C)CCN([C@H]2CCCC[C@@H]2O)C3=O)c1 | 5.92 |
| Cc1nc2c(cc1Cc1ccnc(F)c1)C(=O)N([C@H]1CCCC[C@@H]1O)C2 | 6.03 |
| Cc1nc2c(cc1Cc1ccc(F)c(F)c1)C(=O)N([C@H]1CCCC[C@@H]1O)CC2 | 6.01 |
| Cc1nc2c(cc1Cc1cccc(F)c1)C(=O)N([C@H]1CCCC[C@@H]1O)C2 | 5.56 |

This collection of values is drawn from patent US12156871B2.
